- Test system: CHO-AA8
- assay.info: Tested for the in vitro cytotoxicity against transformed chinese hamster fibroblast line AA8
- Format: cell-based
- conditions.used: Cricetulus griseus
measurement.label: IC50 (µM)
Form entry: value (µM) — number only.

// query IC50 value for entry O=C(O)CCCc1ccc(N(CCCl)CCCl)cc1
26

* * *

- assay.info: Evaluated for the mustard reactivity by determining rate constant for alkylation of 4-(4-nitrobenzyl)pyridine using NBP alkylation assay
- Type: ADME
measurement.label: K NBP (s⁻¹)
Form entry: value (s⁻¹) — number only.

>>> df
                           structure_smiles  readout_value
0  O=S(=O)(CCCCCNc1c2ccccc2nc2ccccc12)c1ccc(N(CCCl)CCCl)cc1            500
1  O=C(CCCCNc1c2ccccc2nc2ccccc12)Nc1ccc(N(CCCl)CCCl)cc1           2500
2  O=C(CCCCCNc1c2ccccc2nc2ccccc12)c1ccc(N(CCCl)CCCl)cc1           1800
3  ClCCN(CCCl)c1ccc(OCCCCCNc2c3ccccc3nc3ccccc23)cc1         115000

// query K NBP value for entry ClCCN(CCCl)c1ccc(SCCCCCNc2c3ccccc3nc3ccccc23)cc1
16900

// query K NBP value for entry ClCCN(CCCl)c1ccc(CCCCCCNc2c3ccccc3nc3ccccc23)cc1
157000

// query K NBP value for entry O=C(NCCCCNc1c2ccccc2nc2ccccc12)c1ccc(N(CCCl)CCCl)cc1
171000
